- Test system: Z138 mantle cell lymphoma tumour cell lines
- run-description: In vitro cytotoxicity, MTT assay
- Assay type: cell-based
- measurement-conditions: Z138 cells, exposed to the test compounds for 96 hours
measurement-type: IC50
Remember to quote the unit after the number.

Ask: Form field: reported IC50 of Cc1nc(-c2ccc(C(F)(F)F)nc2)sc1C(=O)N1CC[C@@H](C(=O)N2CCC(O)(Cn3cnc(Oc4ccc(F)cc4)c(N)c3=O)CC2)[C@H](c2ccccc2)C1 [Example 42]
Reply: 0.00366 µM

Ask: // repeat for Cc1ccc(C2(N3CC[C@@H](C(=O)N4CCC(O)(Cn5cnc(Oc6ccc(F)cc6)c(N)c5=O)CC4)[C@H](c4ccccc4)C3)COC2)cc1 [Example 155] and report
Reply: 0.588 µM

Ask: // repeat for Nc1c(Oc2ccc(F)cc2)ncn(CC2(O)CCN(C(=O)[C@@H]3CCN(C(=O)c4sc(Br)c5c4OCCO5)C[C@H]3c3ccccc3)CC2)c1=O [Example 67] and report
Reply: 0.0278 µM

Cited source: patent US20210355106A1
